Record: compiled IC50 on UniProt:P10635 from multiple reports.

[
  {
    "COMPOUND": "Cc1nc(C)c(-c2csc(NC(=O)Cc3ccc(S(C)(=O)=O)cc3)n2)s1",
    "ASSAYED SYSTEM": "UniProt:P10635",
    "IC50": "> 20 µM"
  },
  {
    "COMPOUND": "CNC(=O)c1cc(COc2nnc(Nc3cccc(C)c3)c3ccsc23)ccn1",
    "ASSAYED SYSTEM": "UniProt:P10635",
    "IC50": "> 20 µM"
  },
  {
    "COMPOUND": "CCc1nn2cc(F)c(N3CCN(CC(=O)N4CC(O)C4)CC3)cc2c1N(C)c1nc(-c2ccc(F)cc2)c(C#N)s1",
    "ASSAYED SYSTEM": "UniProt:P10635",
    "IC50": "> 50 µM"
  },
  {
    "COMPOUND": "COc1cncc(Nc2ccc(C(=O)c3c[nH]c4ncnc(NC(C)C)c34)c(F)n2)c1",
    "ASSAYED SYSTEM": "UniProt:P10635",
    "IC50": "< 5 µM"
  },
  {
    "COMPOUND": "CC1(C)CCNc2cc(NC(=O)c3cc(F)cnc3NCc3ccnc4[nH]ccc34)ccc21",
    "ASSAYED SYSTEM": "UniProt:P10635",
    "IC50": "> 20 µM"
  },
  {
    "COMPOUND": "C[C@]1(c2cc(NC(=O)c3ccc(Cl)cn3)ccc2F)N=C(N)O[C@@H]2CC(F)(F)C[C@@H]21",
    "ASSAYED SYSTEM": "UniProt:P10635",
    "IC50": "1 to 10 µM"
  },
  {
    "COMPOUND": "Cc1cnc2nc(CC3=C(O)CC(CCc4ccc(C5(C#N)CC5)c(F)c4)(C4CCCC4)OC3=O)nn2c1 (single isomer, unassigned)",
    "ASSAYED SYSTEM": "UniProt:P10635",
    "IC50": "0.28 µM"
  },
  {
    "COMPOUND": "Cc1cnc2[nH]cc(Cc3ccc(NC4CCCCC4)nc3F)c2c1",
    "ASSAYED SYSTEM": "UniProt:P10635",
    "IC50": "> 10 µM"
  },
  {
    "COMPOUND": "C[C@H](c1ccc(F)cc1)n1cncc1CN1CCN(S(=O)(=O)c2cnc(N3CCC4(CC3)CNC(=O)N4)s2)CC1",
    "ASSAYED SYSTEM": "UniProt:P10635",
    "IC50": "2.7 µM"
  },
  {
    "COMPOUND": "CCc1ccc(Nc2ccc(Cc3c[nH]c4ncnc(C5CC5)c34)c(F)n2)cn1",
    "ASSAYED SYSTEM": "UniProt:P10635",
    "IC50": "> 10 µM"
  },
  {
    "COMPOUND": "[2H]C([2H])([2H])Oc1cnc(C(=O)Nc2cccc([C@@]3(C)N=C(N)S[C@H](C)[C@@H]3F)c2)cn1",
    "ASSAYED SYSTEM": "UniProt:P10635",
    "IC50": "≥ 20 µM"
  },
  {
    "COMPOUND": "COCCOc1cc(CC2CCN(CCc3ccc4c(c3)C(=O)CCO4)CC2)ccc1C",
    "ASSAYED SYSTEM": "UniProt:P10635",
    "IC50": "21.5 µM"
  },
  {
    "COMPOUND": "[2H]C([2H])([2H])Oc1cc(F)cc([C@@H](CO)NC(=O)[C@@H](C)N2Cc3ccc(-c4nc(NC5CCOCC5)ncc4F)c(F)c3C2=O)c1",
    "ASSAYED SYSTEM": "UniProt:P10635",
    "IC50": "> 10 µM"
  },
  {
    "COMPOUND": "O=C(Nc1ccc(C(F)(F)F)cc1)c1cc(F)cnc1NCc1ccnc2[nH]ncc12",
    "ASSAYED SYSTEM": "UniProt:P10635",
    "IC50": "> 20 µM"
  },
  {
    "COMPOUND": "C[C@H]1SC(N)=N[C@](C)(c2cccc(NC(=O)c3ccc(C#N)cn3)c2)[C@H]1F",
    "ASSAYED SYSTEM": "UniProt:P10635",
    "IC50": "≥ 20 µM"
  }
]
